- Test system: CEM cells HIV-1 protection, formazan growth assay
- Experiment: NCI AIDS Antiviral Assay
- Procedure: The ability of compounds to protect human CEM cells from HIV-1 infection is measured as a screen for new compounds capable of inhibiting the HIV virus. Five concentrations of drug were tested on uninfected and infected cells and cell growth was measured using a soluble formazan assay. […] Compounds that provided at least 50% protection were retested. Compounds that provided at least 50% protection on retest were listed as moderately active. […]
Reported Endpoint: EC50

* O=C(O)CC[C@H](NC(=O)c1ccc(-n2nc3ccc(O)cc3nc2=O)cc1)C(=O)O | > 145 µM
* O=C(O)C1CCC(c2ccc(Oc3ccccc3)cc2)N1 (stereo not given) | > 200 µM
* C[C@H]1[C@H](NC(=O)/C(=N\OC(C)(C)C(=O)O)c2csc(N)n2)C(=O)N1S(=O)(=O)O | > 575 µM
* N#Cc1c(-c2ccccc2)cc(-c2ccccc2)n(C2OC(CO)C(O)C(O)C2O)c1=O (stereo not given) | > 219 µM
* O=C1NC(=O)/C(=C\c2ccccc2)C2=C1CCCC2 | > 74.1 µM

----------
- System: CEM cells HIV-1 protection, formazan growth assay
- Experiment: NCI AIDS Antiviral Assay
- Experimental Context: measured here: growth of uninfected CEM cells
pIC50: −log10 of the molar value.
Reported Endpoint: pIC50

• Cc1ccc(C)c(NC(=O)CC/C(=N\NC(=O)c2c(O)ccc3ccccc23)C(C)C(=O)c2ccc(O)cc2)c1 (stereo not given) = 4.84
• COc1ccc(N=Nc2c(-c3ccccc3)nn(C(=O)CC(=O)Nc3cccc(Cl)c3)c2-c2ccccc2)cc1 = < 4.74
• O=C1CC(=O)NC(=NN2C(=O)/C(=C/c3ccccc3)N=C2c2ccccc2)N1 = < 3.70
• OC1COCOC1C(O)C1OCOCC1O (stereo not given) = < 3.70
• CP(=O)(CCSc1ccccc1)c1ccccc1 (stereo not given) = < 3.18

----------
Reported pEC50 values follow for various compounds
- Tested on: CEM cells HIV-1 protection, formazan growth assay
- Experiment: NCI AIDS Antiviral Assay
pEC50: −log10 of the molar value.
Reported Endpoint: pEC50

• O=C(Nc1ccc(/C=C/c2ccc(NC(=O)c3ccc4cccnc4c3O)cc2S(=O)(=O)O)c(S(=O)(=O)O)c1)c1ccc2cccnc2c1O = < 4.00
• CN/N=C(\C(=O)Nc1ccc(C)c(C)c1)C(C(=O)OC)c1nc2ccc([N+](=O)[O-])cc2[nH]c1=O (centres undefined) = < 4.11
• Cc1nc2c(=O)[nH]c3ccc(Cl)cc3c2o1 = < 3.70
• O=S(=O)(O)C(F)(F)C(F)(F)C(F)(F)C(F)(F)C(F)(F)C(F)(F)C(F)(F)C(F)(F)F = < 3.70
• NCCCOc1ccc(-c2c3nc(cc4ccc([nH]4)c(-c4ccc(OCCCN)cc4)c4nc(cc5ccc2[nH]5)C=C4)C=C3)cc1 = 5.62
• CO[C@H]1Nc2c(ccc(C)c2O)C(=O)N2C=C(/C=C/C(N)=O)C[C@@H]12 = < 3.12
• O=c1n(-c2ccccc2)c2nc3ccccc3nc2n1-c1ccc(Cl)c(Cl)c1 = < 4.21
• CCOC(=O)C(CSSCC(NC(C)=O)C(=O)OCC)NC(C)=O (centres undefined) = 4.09
• CSc1c(N(C)C)c(=O)c1=S = < 3.70

----------
- Tested on: CEM cells HIV-1 protection, formazan growth assay
- Experiment: NCI AIDS Antiviral Assay
pEC50: −log10 of the molar value.
Reported Endpoint: pEC50

• CCC1C[N+]23CCc4c([nH]c5ccccc45)C2CC1CC3 (stereo unspecified) = < 4.24
• CC[As](CC)SCC1OC(OC(C)=O)C(OC(C)=O)C(OC(C)=O)C1OC(C)=O (stereo unspecified) = < 3.72
• C=CCN(N=O)C(=O)N(CCCC(NC(C)=O)C(=O)NCc1ccccc1)Cc1ccccc1 (stereo unspecified) = < 4.39
• COc1cc(C(=O)Nc2cccc3ccccc23)c(Br)c(OC)c1OC = < 4.34
• N#CS/C(C(Cl)=C(Cl)Cl)=C(/Cl)[N+](=O)[O-] = < 3.70
• C=C1c2nc3ccccc3n2C=C(c2ccc(C)cc2)N1c1ccc(C)cc1 = < 3.70
• c1ccc(CN2CCC(=NN3CCCCC3)CC2)cc1 = < 3.70
• C=CCC(SC)C1=C(C)C(=O)c2ccccc21 (stereo unspecified) = < 3.70
• CCOC(=O)c1ccc(N2C(=O)/C(=C/c3ccc(N(CCC#N)CCC#N)cc3)N=C2c2cc([N+](=O)[O-])ccc2Cl)cc1 = < 4.92
• CC(C)CCC[C@@H](C)C1CCC2[C@@H]3CCC4C[C@@H](NS(C)(=O)=O)CC[C@]4(C)C3CC[C@@]21C (stereo partly specified) = < 3.70
• COc1ccc(-c2nc3sc(-c4ccc(OC)c(OC)c4)nc3s2)cc1OC = < 3.70
• O=C(O)CCc1nc(-c2ccccc2)c(-c2ccccc2)o1 = < 3.70
• N#C/C(=C\c1cccc([N+](=O)[O-])c1)C(=O)c1ccccc1 = < 4.10
• C=C(CC)C[C@@H]1C[C@]2(C(=O)OC)c3[nH]c4ccccc4c3CCN2C1=O = < 3.70
• Cc1ccc(C(=O)N2CCN(C(=O)c3ccc(C)cc3)c3ccccc32)cc1 = < 4.99
• Nc1ncnc2c1ncn2C1OC(CCP(=O)(O)O)C(O)C1O (stereo unspecified) = < 4.00
• CO[C@@H]1C[C@H]2[C@@H]3CC[C@H]([C@@H](C)CO)[C@@]3(C)CC[C@@H]2[C@@]2(C)CC[C@H]3C[C@]312 = < 3.70
• CC(C)(Oc1ccccc1)C(=O)Sc1c(-c2ccccc2)c(=O)n(-c2ccccc2)c(=S)n1-c1ccccc1 = < 3.70
• O=C(CCN1CCN(c2cccc(Cl)c2)CC1)N1CCc2c([nH]c3ccccc23)C1c1cccnc1 (stereo unspecified) = < 4.98
• CC(C)=CCC[C@@H](C)/C=C/C=C(\C)C(=O)CC[C@@H]1CC[N@+]2(C)CCCC[C@H]12 = < 3.70
• CC(=O)OCC12CC(CC1OC(C)=O)c1ccccc12 (stereo unspecified) = < 3.60

----------
- System: CEM cells HIV-1 protection, formazan growth assay
- Experiment: NCI AIDS Antiviral Assay
- Experimental Context: measured here: growth of uninfected CEM cells
Reported Endpoint: IC50

• CCOC(=O)/C(=C\c1ccc(C)cc1)[Se]c1ccccc1 = > 5.75 µM
• C=CCCC1CCCCC/C1=N\N(C)C (stereo not drawn) = > 200 µM
• CCCCC1Sc2cc(OC)cc3c2N(CCN3)C1=O (stereo not drawn) = 28.2 µM

----------
- Tested on: CEM cells HIV-1 protection, formazan growth assay
- Experiment: NCI AIDS Antiviral Assay
- Experimental Context: measured here: growth of uninfected CEM cells
Reported IC50 values follow for various molecules
Reported Endpoint: IC50

* Cc1ccc(C2=NN(C)COC2C(F)(F)F)cc1 (stereo not given) | > 28.2 µM
* Cc1ccc(Nc2nc(NNC(=O)Cc3ccccc3)nc(NNC(=O)c3ccncc3)n2)cc1 | > 50.1 µM
* C/C=C/CP(=O)(c1ccccc1)c1ccccc1 | > 200 µM
* C=C1C2CC[C@H]3C4(C)CCCC(C)(C(=O)O)[C@H]4CCC3(C2)[C@@H]1OC(C)=O (stereo not given in full) | 77.6 µM
* CCOC1(OCC)CS(=O)(=O)C1c1ccccc1 (stereo not given) | > 661 µM
* CSc1nc2c3ccccc3ccn2c1C(=O)N/N=C/c1ccccc1 | > 100 µM
* NC1=NS(=O)(=O)Nc2nc(-c3ccc([N+](=O)[O-])cc3)[nH]c21 | > 200 µM
* CC[C@@H]1ON(C)[C@H]2CN(C)C(=O)[C@@H]12 | > 200 µM
* COc1ccc(C)c2c1N[C@](C)([C@]1(C)Nc3c(OC)ccc(C)c3C1=O)C2=O | > 100 µM
* C(#CC1(Nc2ccccc2)CCN(Cc2ccccc2)CC1)C1(Nc2ccccc2)CCN(Cc2ccccc2)CC1 | 74.1 µM

----------
- System: CEM cells HIV-1 protection, formazan growth assay
- Experiment: NCI AIDS Antiviral Assay;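 active = compounds giving half or more protection of infected cells from virus-caused growth loss, again on retest; inactive = the rest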
Where a SMILES comes first, the peptide text is derived from it. [ ]: non-standard residue; d: D form. The star is where a group is joined. ξ: configuration not given here. ξF = NC(Cc1ccccc1)C(=O)O; Cbz = O=C(OCc1ccccc1)*
Labels: active, inactive

- O=C(CC(O)(C(F)(F)F)C(F)(F)F)c1cccs1: inactive
- COc1ccc2c(c1OC)CC1COCC21 (stereo unspecified): inactive
- O=C(O)Cn1[se]c2ccccc2c1=O: active
- O=c1[nH][nH]c(=O)n1Cc1ccccc1: inactive
- CCOC(=O)CNC(=O)C(Cc1ccccc1)NC(=O)OCc1ccccc1 (stereo unspecified) (Cbz-[ξF]-Gly-OEt): inactive
- Cn1c2ccccc2c2ccc3c(c21)C(=O)C(c1ccccc1)=CC3=O: inactive
- CC1(C)Oc2ccc3c(=O)c(-c4ccccc4)c(-c4ccccc4)oc3c2C1C(=O)O (stereo unspecified): inactive
- Nc1ccccc1/C=C1/Sc2cc[nH]c2C1=O: inactive
- CC(=O)[C@H]1CC[C@H]2[C@@H]3C=CC4=CC(=O)CC[C@@]4(C)[C@@H]3CC[C@]12C: active
- O=C(CCc1cc(O)cc(O)c1)NCCCNC(=O)CCc1cc(O)cc(O)c1: inactive
- CCCCCCCCCCCCCCCCCCOP1(=O)OCCO1: inactive
